Origin of values: ChEMBL document CHEMBL3259736

- Test system: KB
- assayProtocol: Cytotoxicity against human KB cells assessed as inhibition of cell growth after 3 days by MTT assay
- Format: functional, cell-based
- details: 72 h
Recorded pIC50, one value per entry.
// field semantics: pIC50 = negative decimal log of concentration (mol/L)

**Query** Requested field: pIC50. Item: `CCOC(=O)/C(C)=C/[C@@H](NC(=O)[C@@H](NC(=O)/C(=C/c1ccoc1)NC(C)=O)C(C)(C)C)C(C)C`
**Result** 7.06

**Query** Requested field: pIC50. Item: `CCOC(=O)/C(C)=C/[C@H](C(C)C)N(C)C(=O)[C@@H](NC(=O)/C(=C/c1ccc(OC)cc1)NC(C)=O)C(C)(C)C`
**Result** 8.43
